Measured koff accompanies every entry in the list below.
Molecular target: T1, Murine B7-H4 ECD-Flag-His10 (monomeric) (mouse, UniProt Q7TSP5 25-257)
T1 construct: extracellular domain; also called FlagHis10 murine B7-H4
T1 sequence (looked up): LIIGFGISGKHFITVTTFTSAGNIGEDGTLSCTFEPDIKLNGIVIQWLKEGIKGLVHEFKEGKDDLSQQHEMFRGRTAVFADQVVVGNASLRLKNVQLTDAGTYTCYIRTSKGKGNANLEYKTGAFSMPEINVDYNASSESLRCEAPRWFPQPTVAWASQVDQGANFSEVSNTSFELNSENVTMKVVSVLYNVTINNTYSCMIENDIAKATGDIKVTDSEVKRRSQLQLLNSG
Assay: Octet BLI, hIgG1-TM on Protein G (n = 4-7)
Report the value in s⁻¹ with no unit label.

Some binders with known koff results, for comparison:
BINDER: ZY0EO5-E07 human IgG1-TM (antibody, V domains shown, also called ZY0E05-E07; E05-E07) VH: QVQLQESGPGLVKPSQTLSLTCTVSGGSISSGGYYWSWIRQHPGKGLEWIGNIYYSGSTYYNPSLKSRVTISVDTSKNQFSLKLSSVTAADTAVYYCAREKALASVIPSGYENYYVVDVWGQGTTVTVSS VL: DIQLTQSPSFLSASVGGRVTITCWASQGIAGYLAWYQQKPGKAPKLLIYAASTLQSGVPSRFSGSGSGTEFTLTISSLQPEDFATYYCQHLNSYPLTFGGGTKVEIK
koff (s⁻¹): 0.000361

BINDER: ZY0EOB-F05 human IgG1-TM (antibody, V domains shown) VH: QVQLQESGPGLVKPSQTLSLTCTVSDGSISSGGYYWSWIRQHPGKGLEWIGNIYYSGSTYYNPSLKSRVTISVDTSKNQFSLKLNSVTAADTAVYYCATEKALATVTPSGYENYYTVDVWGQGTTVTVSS VL: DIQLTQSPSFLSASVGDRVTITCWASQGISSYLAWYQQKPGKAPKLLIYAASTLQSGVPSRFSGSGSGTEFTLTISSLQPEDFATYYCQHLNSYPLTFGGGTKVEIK
koff (s⁻¹): 0.000476

For the next question, use this binder.
What koff value was documented for this binder, ZY0EP0-C07 human IgG1-TM (antibody, V domains shown, also called ZY0EPO-C07) VH: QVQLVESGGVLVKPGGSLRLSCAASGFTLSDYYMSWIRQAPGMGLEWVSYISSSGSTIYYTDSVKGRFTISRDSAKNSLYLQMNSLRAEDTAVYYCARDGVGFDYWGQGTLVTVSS VL: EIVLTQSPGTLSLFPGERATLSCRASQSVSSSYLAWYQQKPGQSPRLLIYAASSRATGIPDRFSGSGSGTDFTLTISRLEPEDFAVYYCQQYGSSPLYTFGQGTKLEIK ? 0.000524
